# assayed_target: Melanin-concentrating hormone receptor 1 (Homo sapiens)
# assay_info: MCH receptor 1 blockade in cells – cell-based, fluorescence, dose response, set 3, selectivity assay for GPR7 antagonist project, late-stage follow-up (AID 540371)
# study_conditions: MCHR1-expressing cells, run 1
Activity calls are given as the source filed them. No rule for the calls is given here.
assay_metric: IC50

Here is how some compounds turned out for IC50.
compound | assayed_target | IC50
CCOc1ccc(Oc2c(Cl)cnn(C3c4ccccc4-c4ccccc43)c2=O)cc1 | Melanin-concentrating hormone receptor 1 (Homo sapiens) | > 20000 nM (inactive)
COc1ccc(Oc2c(Cl)cnn(C(c3ccccc3)c3ccccc3)c2=O)cc1 | Melanin-concentrating hormone receptor 1 (Homo sapiens) | inactive
COc1ccc(Oc2c(Br)cnn(Cc3cccc4ccccc34)c2=O)cc1 | Melanin-concentrating hormone receptor 1 (Homo sapiens) | 892 nM
COc1ccc(Oc2c(Cl)cnn(Cc3cc(C)cc(C)c3)c2=O)cc1 | Melanin-concentrating hormone receptor 1 (Homo sapiens) | 1500 nM
CCOC(=O)C(c1cccc2ccccc12)n1ncc(Cl)c(Oc2ccc(OC)cc2)c1=O (stereo not given) | Melanin-concentrating hormone receptor 1 (Homo sapiens) | > 20000 nM (inactive)
CCCOc1ccc(Oc2c(Cl)cnn(Cc3cccc4ccccc34)c2=O)cc1 | Melanin-concentrating hormone receptor 1 (Homo sapiens) | inactive
CCOc1ccc(Oc2c(Cl)c(Br)nn(Cc3cccc4ccccc34)c2=O)cc1 | Melanin-concentrating hormone receptor 1 (Homo sapiens) | 2390 nM
COc1ccc(Oc2c(Cl)cnn(Cc3c4ccccc4cc4ccccc34)c2=O)cc1 | Melanin-concentrating hormone receptor 1 (Homo sapiens) | > 20000 nM (inactive)
CCOc1ccc(Oc2c(S(C)=O)cnn(Cc3cccc4ccccc34)c2=O)cc1 (stereo not given) | Melanin-concentrating hormone receptor 1 (Homo sapiens) | 6190 nM

Lookup result for CCOc1ccc(Oc2c(Cl)cnn(Cc3cccc4ccccc34)c2=O)cc1 ; measured IC50: 1590 nM
